# Test system: 138582-337-R-J1-PDC spheroids with HUVEC/MSC, viability;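 note: spheroids exposed to compounds for seven days; 100% = DMSO vehicle control viability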
# protocol_description: Anticancer human tumor 138582-337-R-J1-PDC patient-derived Merkel cell tumor cell line growth inhibition [IpAb]
# run_conditions: second compound 1 µM; first compound 0.1 µM; active compounds read low
# Protocol: Combinatorial screen of targeted agents with ipatasertib and abemaciclib in multi-cell type tumor spheroids […] Compounds. […] If the clinical Cmax for an agent had not been determined, the highest concentration tested was 10 microM. NCI60 Cell Culture. […] The optimal seeding densities for each of the cell lines at each time point assessed were determined prior to performing the concentration response studies. […]
With a cut-off of 70%, any viability, T/C strictly below it is called label 1; any viability, T/C meeting it or above is called label 0.

Lab note: confirm whether the reported viability, T/C for this compound is below 70%, equality not counting. compound: Cc1nc(NC(=O)N2CCCC2C(N)=O)sc1-c1ccnc(C(C)(C)C(F)(F)F)c1 (stereo unspecified) + CCN1CCN(Cc2ccc(Nc3ncc(F)c(-c4cc(F)c5nc(C)n(C(C)C)c5c4)n3)nc2)CC1 label 0

Lab note: confirm whether the reported viability, T/C for this compound is below 70%, equality not counting. compound: C=CC(=O)N1CCN(c2nc(=O)n(-c3c(C)ccnc3C(C)C)c3nc(-c4c(O)cccc4F)c(F)cc23)C(C)C1 (stereo unspecified) + CC(C)NCC(C(=O)N1CCN(c2ncnc3c2C(C)CC3O)CC1)c1ccc(Cl)cc1 label 1

Lab note: confirm whether the reported viability, T/C for this compound is below 70%, equality not counting. compound: Cn1ncnc1[C@H]1c2n[nH]c(=O)c3cc(F)cc(c23)N[C@@H]1c1ccc(F)cc1 + CC(C)NCC(C(=O)N1CCN(c2ncnc3c2C(C)CC3O)CC1)c1ccc(Cl)cc1 label 1

Lab note: confirm whether the reported viability, T/C for this compound is below 70%, equality not counting. compound: Cn1ncnc1[C@H]1c2n[nH]c(=O)c3cc(F)cc(c23)N[C@@H]1c1ccc(F)cc1 + CCN1CCN(Cc2ccc(Nc3ncc(F)c(-c4cc(F)c5nc(C)n(C(C)C)c5c4)n3)nc2)CC1 label 0

Lab note: confirm whether the reported viability, T/C for this compound is below 70%, equality not counting. compound: CC(C)n1nc(-c2ccc3oc(N)nc3c2)c2c(N)ncnc21 + CCN1CCN(Cc2ccc(Nc3ncc(F)c(-c4cc(F)c5nc(C)n(C(C)C)c5c4)n3)nc2)CC1 label 1

Lab note: confirm whether the reported viability, T/C for this compound is below 70%, equality not counting. compound: Cn1ncc(Cl)c1-c1cc(C(=O)NC(CN)Cc2cccc(F)c2)sc1Cl (stereo unspecified) + CC(C)NCC(C(=O)N1CCN(c2ncnc3c2C(C)CC3O)CC1)c1ccc(Cl)cc1 label 0

Lab note: confirm whether the reported viability, T/C for this compound is below 70%, equality not counting. compound: COc1c(OCCCN2CCOCC2)ccc2c3n(c(=NC(=O)c4cnc(N)nc4)nc12)CCN3 + CCN1CCN(Cc2ccc(Nc3ncc(F)c(-c4cc(F)c5nc(C)n(C(C)C)c5c4)n3)nc2)CC1 label 1

Lab note: confirm whether the reported viability, T/C for this compound is below 70%, equality not counting. compound: Cn1nccc1Nc1nccc(-c2ccn(C(CO)c3ccc(Cl)c(F)c3)c(=O)c2)n1 (stereo unspecified) + CCN1CCN(Cc2ccc(Nc3ncc(F)c(-c4cc(F)c5nc(C)n(C(C)C)c5c4)n3)nc2)CC1 label 0

Lab note: confirm whether the reported viability, T/C for this compound is below 70%, equality not counting. compound: C=CCn1c(=O)c2cnc(Nc3ccc(N4CCN(C)CC4)cc3)nc2n1-c1cccc(C(C)(C)O)n1 + CCN1CCN(Cc2ccc(Nc3ncc(F)c(-c4cc(F)c5nc(C)n(C(C)C)c5c4)n3)nc2)CC1 label 0

Lab note: confirm whether the reported viability, T/C for this compound is below 70%, equality not counting. compound: COc1c(OCCCN2CCOCC2)ccc2c3n(c(=NC(=O)c4cnc(N)nc4)nc12)CCN3 + CC(C)NCC(C(=O)N1CCN(c2ncnc3c2C(C)CC3O)CC1)c1ccc(Cl)cc1 label 1
